assay: differential killing of epithelial or mesenchymal cells, primary screen, imaging, PC-3E GFP, TEM4-18 mCherry, co-culture (AID 1345086); details: imaging cell counts, measured here: epithelial PC-3E GFP cell survival, at 1 µM;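 also: cells exposed to compound for 72 h before imaging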
property-name: normalised cell number
Just the number, please.

Solved entries:
CC(C)C(C)/C=C/C(C)C1CCC2C3=CC=C4CC(O)CCC4(C)C3CCC21C (stereo not given): 1
CO[C@H]1OC(COCc2ccccc2)C(O)[C@@H]2OC(=O)N[C@H]12 (stereo not given in full): 0.88
Cc1ccc(S(=O)(=O)O[C@H]2CCOC2=O)cc1: 1.16

Request: Provide only the value of recorded normalised cell number for `O=C(O)c1cc(=O)c(O)c2c(O)c(O)c(O)cc2c1`
Response: 1.11

Request: Specify measured normalised cell number for C[C@@H]1CC[C@H]2[C@@H](C)C(O)O[C@@H]3O[C@]4(C)CC[C@@H]1[C@]32OO4 (stereo not given in full) .
Response: 1.16
